B1: KLHDC10 (parent)
chain: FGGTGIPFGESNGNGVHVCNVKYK

- Variants of: B1
- MEASUREMENT PROTOCOL: protein stability index of a GFP-peptide fusion (GPS, HEK-293T) (PSI 1-6); higher = more stable;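 further: lentivirally expressed fusions sorted by FACS into six bins by GFP to DsRed ratio, PSI derived from sequencing read proportions per bin multiplied by bin number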
- PROTOCOL CONDITIONS: c terminus: a fixed tail appended
Cut-off 2 on protein stability index, inclusive. At or above means yes (1); below means no (0).

[
  {
    "SEQUENCE CHANGE": "K24R",
    "DISCRETE LABEL": "no (0)"
  },
  {
    "SEQUENCE CHANGE": "V16F",
    "DISCRETE LABEL": "yes (1)"
  }
]

Is reported protein stability index greater than or equal to 2 here: N20L
no (0)

Confirm if protein stability index reported for the variant H17M is 2 or above.
no (0)

Hi team, for G15Y , is the recorded protein stability index at or above 2?
no (0)

Confirm if protein stability index reported for the variant C19I is 2 or above.
no (0)

Say whether F8P shows protein stability index of 2 or more.
yes (1)

Is protein stability index at least 2? Consider T4R
no (0)

// inclusive: protein stability index at least 2? input: G15I
no (0)

Does the variant G13R have recorded protein stability index that is 2 or more?
yes (1)

# check: protein stability index of K24G is greater than or equal to 2
no (0)

Identify whether the reported protein stability index of the following variant is 2 or greater: F8M
yes (1)
